Source of measurements: paper PMC7887755

Test system: Mtb H37Rv
Measurement protocol: MIC under iron-depleted (DFO) or iron-replete (FeCl3) conditions
Assay type: cell-based, Mycobacterium tuberculosis
Property measured: increase in potency under iron-depleted conditions (MIC ratio)

Prompt: Which increase in potency under iron-depleted conditions (MIC ratio) reading was recorded for the molecule COc1ccc(-c2cc(=O)n3nc(C)c(-c4ccc(F)cc4)c3[nH]2)cc1 [Compound 4, reference compound] ?
Completion: ≤ 2 fold

Prompt: Please do the same for Cc1nn2c(=O)cc(-c3ccc(Cl)c(Cl)c3)[nH]c2c1-c1ccc(F)cc1 as well.
Completion: ≤ 2 fold

Prompt: And for Cc1nn2c(=O)cc(-c3ccc(F)c(F)c3)[nH]c2c1-c1ccccc1 ?
Completion: ≤ 2 fold
